measure.name: melting point

# input Returns the measured melting point for the input compound. Input: CC(=O)c1cccc(Nc2cc(C)nc(N)n2)c1
# output 194 to 196 °C

# input Again, but for O=C(O)c1cc(CCCBr)ccc1O
# output 68 to 73 °C

# input Query NC(=NO)c1ccc(-c2ccc(O)cc2)o1 next
# output 157 to 158 °C

# input Next compound up: CN1CCN(c2c3c(nc4cc(Cl)ccc24)CCN(C)C3)CC1
# output 114 to 115 °C

# input Record: C1=Cc2ccccc2NC1
# output 89 to 90 °C

# input Could you do the same for NC(=O)NC1CCCCC1 , please?
# output 175 to 176 °C

# input What would you report for Cc1oc2cc(NC(=O)C(=O)O)ccc2c(=O)c1C ?
# output 234 to 240 °C

----------
Reported melting point values for the following compounds.

Field: example entries. Status: answers known.
>  <compound>
O=C(O)Cc1ccc(C(=O)c2ccc(Cl)cc2)n1Cc1ccccc1

>  <measure.name>
melting point

>  <reported>
162 to 163 °C

$$$$
>  <compound>
OCC1OC(n2cnc3c(Nn4ccc5ccccc54)ncnc32)C(O)C1O (stereo not drawn)

>  <measure.name>
melting point

>  <reported>
155 °C

$$$$
>  <compound>
Cc1[nH]c(C(=O)NCc2ccc3c(c2)OCO3)c(C)c1-c1nc2ccc(C(=O)c3ccccc3)cc2[nH]1

>  <measure.name>
melting point

>  <reported>
165 to 167 °C

$$$$
>  <compound>
Nc1ccc(Oc2ccc(C3CCCCC3)cc2)c(N)c1

>  <measure.name>
melting point

>  <reported>
101 °C

$$$$
>  <compound>
CSc1nccc(C)c1NC(=O)CSc1nc2ccccc2o1

>  <measure.name>
melting point

>  <reported>
146 to 148 °C

$$$$
>  <compound>
O=C(O)c1ccc(COc2ccc3cc(-c4csc(-c5ccccc5)n4)ccc3c2Br)cc1

>  <measure.name>
melting point

>  <reported>
268 to 270 °C

$$$$
>  <compound>
CCCC1(C(=O)NCCCCCO)c2ccccc2-c2ccccc21

>  <measure.name>
melting point

>  <reported>
48 to 51 °C

$$$$
>  <compound>
Cc1c(C)c2c(c(C)c1O)CC[C@](C)(C(=O)N[C@H]1CCOC1=O)O2

>  <measure.name>
melting point

>  <reported>
195 to 196 °C

$$$$
>  <compound>
Cc1ccc(C(=O)Nc2cc(N3CCOCC3)cc(C(F)(F)F)c2)cc1Nc1nccc(-c2cccnc2)n1

>  <measure.name>
melting point

>  <reported>
208 to 211 °C

$$$$
>  <compound>
CC(C)(C)OC(=O)C(C1NC(C(=O)OCc2ccccc2)C2(CCSCC2)S1)N1C(=O)c2ccccc2C1=O (stereo not drawn)

>  <measure.name>
melting point

>  <reported>
197 to 198 °C

$$$$

# input Quick one: melting point of C=CC1(O)CCC2C3CCC4=CC(=O)CCC4C3CCC21CC (stereo not drawn) ?
# output 108 to 111 °C

# input And what about the compound CN(CC1CCN(c2ccc(OC(F)(F)F)cc2)CC1)c1ccc(OC[C@@]2(C)Cn3cc([N+](=O)[O-])nc3O2)cc1 ?
# output 172 to 175 °C

# input Note, next up: Cc1cccc(-c2cccc3c2OC(CN)C3)c1C (stereo not drawn)
# output > 225 °C

# input Another compound to look at: CN1Cc2c(-c3nc(C4CC4)no3)ncn2-c2cccc(Br)c2C1=O
# output 187 to 189 °C

# input Repeat for the following compound: FC(F)(F)c1ccc(NC2CCNCC2)nc1
# output 128 °C

# input // repeat for NC(=S)N(c1ccsc1-c1nc(C2CC2)no1)C1CN2CCC1CC2 (stereo not drawn) and report
# output 155 to 157 °C

# input Please do the same for CC(Cn1c(=S)[nH]c2ccccc2c1=O)N1CCC(C(=O)c2ccc(F)cc2)CC1 (stereo not drawn) as well.
# output 161 °C

# input Follow-up item: C=Cc1cn(C)c2cc(-c3ccccc3Cl)c3c(c12)C(=O)NC3=O
# output 200 to 205 °C

----------
measure.name: melting point

Example cases with answers are listed next.
>  <compound>
C=C(C)C(=O)OCCCOc1ccc(OC(=O)C(=C)C)cc1

>  <melting point>
58 °C

$$$$
>  <compound>
O=C(O)C(=O)c1ccc(OCCOc2cc3ccccc3cc2OCCO)cc1

>  <melting point>
176 to 177 °C

$$$$
>  <compound>
C=Cn1cc(C(=O)O)c(=O)c2cc(F)c(F)c(F)c21

>  <melting point>
186 to 187 °C

$$$$

Query compound follows.
# input Which melting point is reported for this compound? C=COCCN1C(=O)CN(C)C1=O
# output 54 to 56 °C

----------
measure.name: melting point

Below, each entry is followed by its recorded melting point result.
>  <compound>
N#CC(C#N)=C1N(CCCN2CCCCC2)CCN1CCN1CCCCCC1

>  <melting point>
80 to 86 °C

$$$$
>  <compound>
O=C1NC(Cc2cccs2)C(=O)NC1Cc1ccc(OCc2ccccc2)cn1 (centres undefined)

>  <melting point>
201 to 203 °C

$$$$
>  <compound>
Cc1cccc(C(=O)NN2NC=CC2C(=O)NCC(O)c2ccc(C(F)(F)F)cc2)n1 (centres undefined)

>  <melting point>
250 to 251 °C

$$$$
>  <compound>
N#Cc1cccc(C=CC=O)c1

>  <melting point>
100 °C

$$$$
>  <compound>
COc1ccc(-c2nc(C3=NNC(=O)CC3)sc2-c2ccc(OC)cc2)cc1

>  <melting point>
242 to 247 °C

$$$$

Would you kindly look at the next entry?
# input // melting point lookup, key: O=C(N[C@H]1CN(Cc2ccccc2)[C@@H]2CCO[C@H]12)C(F)(F)F (relative stereo)
# output 150 to 154 °C

----------
measure.name: melting point

# input Fill blank: measured melting point of the compound COC1CN(C)S(=O)(=O)c2sccc21 (stereo not given) is ____.
# output 61 to 63 °C

# input For COC=Nc1c(SC)c(-c2ncon2)nn1-c1c(Cl)cc(C(F)(F)F)cc1Cl then?
# output 119 to 121 °C

----------
measure.name: melting point

Past entries and their recorded results:
>  <structure.string>
Oc1ccccc1N1CCN(Cc2nc3ccccc3[nH]2)CC1

>  <melting point>
208 to 216 °C

$$$$
>  <structure.string>
Nc1c(-c2cccc(Oc3ccccc3)c2)cnc2ncnn12

>  <melting point>
248 to 250 °C

$$$$

# input Record request: melting point value, item CCCn1nc(-c2ccc(OC)cc2)cc(C(=O)OC)c1=O
# output 105 to 106 °C

# input Same read-out for COc1cc2c(cc1OC)OCCC(C(=O)N1CCN(C(=O)c3cc(OC)c(OC)c(OC)c3)CC1)=C2 ?
# output 132 to 134 °C

# input Again, but for O=c1[nH]c2ccccc2cc1CN1CCN(c2ccc(Cl)cc2)CC1
# output 256 to 259 °C

----------
Measured melting point values are reported for all entries that follow.

>  <compound>
CC(C)(C)OC(=O)N1CCC2(CC1)C(=O)N(CC(=O)O)CN2C1CCCCC1

>  <reported>
173 to 174 °C

$$$$
>  <compound>
CCOC(=O)CCCC(=O)c1ccc(Oc2ccccc2)cc1

>  <reported>
61 to 62 °C

$$$$
>  <compound>
CNS(=O)(=O)c1ccc(C2CCN(c3ccncc3)CC2)cc1

>  <reported>
225 to 228 °C

$$$$
>  <compound>
NS(=O)(=O)c1cc(CCNC(=O)c2cnc3ccccc3c2)ccc1OCCOCC(F)(F)F

>  <reported>
206 to 210 °C

$$$$
>  <compound>
O=C1c2ccccc2C(Nc2ccc(Cl)cc2)N1CCCN1CC=C(c2ccccc2)CC1 (stereo not given)

>  <reported>
188 °C

$$$$

# input Which value of melting point has been reported for CCCNC(=O)Cn1c(-c2ccc(Cl)cc2)nc2cccnc21 in the records?
# output 220 to 221 °C

# input # repeat for CCOC(=O)C(F)(F)C(I)c1ccc(OC)cc1 (stereo not given)
# output 44 to 45 °C

# input Continue with CCCC(CCC)n1c(CC)nc2c1c(=O)n(C)c(=O)n2-c1ccc(Cl)cc1Cl
# output 185 to 186 °C

# input Moving on to the next compound: CC1(C)Cc2cc(OCC(N)=O)c3c(c2C(c2ccccc2)=N1)CC(C)(C)O3
# output 117 to 119 °C

# input // repeat for COc1ccc(OC2COc3ccc(OCc4ccc5ccccc5n4)cc3C2O)cc1 (stereo not given) and report
# output 131 to 132 °C

----------
In this section we review reported melting point values for a set of compounds.

>  <compound>
CCOCCOCCOCCOc1ccc(OCCCCCCCCCCCCOc2ccccc2)cc1N(CC(=O)O)CC(=O)O

>  <melting point>
58 to 61 °C

$$$$
>  <compound>
COC(=O)C=Cc1cc([N+](=O)[O-])ccc1Cl

>  <melting point>
159 to 162 °C

$$$$
>  <compound>
CC(C)NC(=O)CC(O)(Cn1cncn1)c1ccc(Cl)cc1Cl (stereo not given)

>  <melting point>
105 to 107 °C

$$$$
>  <compound>
CCCCN1CCC(n2c(=O)[nH]c3ccc(Br)cc32)CC1

>  <melting point>
179 to 181 °C

$$$$

Now for another entry.
# input Could you share which melting point value was measured for CC(C)Cn1cnc2c1c1ccccc1n1nnnc21 ?
# output 208 to 212 °C
